- PROTOCOL DESCRIPTION: Human HepG2 cell viability assay in 384 well format
- Assay type: toxicity, cell-based
- Design: dose 125 nL, time 70.5 hour; concentration not given beside the values
- CONDITION LABEL: HepG2 cells, read-out: Inhibition
Task for the reader: assign each of the following molecules its reported cytotoxicity at 70.5 h.
Provide only the numeric value, understood in %.

Need cytotoxicity at 70.5 h of CN(C)CCOCC1CN(C(=O)c2cccn2C)Cc2ccnn2C1 (stereo unspecified) , thanks. 8.36

Need cytotoxicity at 70.5 h of COc1ccc(-c2ccccc2CCN)c(OC)c1OC , thanks. 6.2

Need cytotoxicity at 70.5 h of Cc1nonc1C1CCCN1C(=O)c1cc2n(n1)CCCN(C(C)C)C2 (stereo unspecified) , thanks. -6.2

Need cytotoxicity at 70.5 h of COCCN1CCC(c2nc3ccc(NC4CCC4)cn3n2)CC1 , thanks. 0.236

Need cytotoxicity at 70.5 h of CC(NC(=O)c1cccs1)C(=O)Nc1cccnc1N1CCCCC1 (stereo unspecified) , thanks. 2.11

Need cytotoxicity at 70.5 h of O=C(c1ccc(Br)o1)N1CCN(Cc2ccc(OC(F)(F)F)cc2)CC1 , thanks. -2.19
